# Measurement target: UniProtKB Q8IW41
# Sequence (Q8IW41 1-473): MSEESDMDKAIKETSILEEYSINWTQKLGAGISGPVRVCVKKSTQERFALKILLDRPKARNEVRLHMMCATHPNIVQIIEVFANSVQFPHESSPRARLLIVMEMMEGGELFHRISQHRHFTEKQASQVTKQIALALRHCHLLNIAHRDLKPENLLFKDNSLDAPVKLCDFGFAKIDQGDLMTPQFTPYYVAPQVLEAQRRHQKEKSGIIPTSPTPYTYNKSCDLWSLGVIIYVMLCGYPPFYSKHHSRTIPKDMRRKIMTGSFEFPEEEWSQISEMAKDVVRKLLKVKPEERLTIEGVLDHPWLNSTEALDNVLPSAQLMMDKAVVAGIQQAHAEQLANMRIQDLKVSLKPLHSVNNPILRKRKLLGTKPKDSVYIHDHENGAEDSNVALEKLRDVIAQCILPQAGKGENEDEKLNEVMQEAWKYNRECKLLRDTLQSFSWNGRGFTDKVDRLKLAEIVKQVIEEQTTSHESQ
# Test description: HTS ATP-utilizing enzyme assay, off-chip mobility-shift (Caliper HTS 250)
# Type: biochemical
# Condition parameters: test compound 10 μM, kinase listed = active (greater than six-sigma from the mean activity of inactive compounds)

Record smiles: CN1CCN(c2ccc(Nc3ccnc4ccc(-c5cccc([N+](=O)[O-])c5)cc34)cc2)CC1
Activity: PRAK

Record smiles: CN1CCN(c2ccc(Nc3ccnc4ccc(-c5cccc6ccccc56)cc34)cc2)CC1
Activity: PRAK

Record smiles: CCc1ccccc1-c1ccc2nccc(Nc3ccc(N4CCN(C)CC4)cc3)c2c1
Activity: PRAK

###

# Measurement target: MAPKAPK2 (Homo sapiens)
# Sequence (P49137 whole entry): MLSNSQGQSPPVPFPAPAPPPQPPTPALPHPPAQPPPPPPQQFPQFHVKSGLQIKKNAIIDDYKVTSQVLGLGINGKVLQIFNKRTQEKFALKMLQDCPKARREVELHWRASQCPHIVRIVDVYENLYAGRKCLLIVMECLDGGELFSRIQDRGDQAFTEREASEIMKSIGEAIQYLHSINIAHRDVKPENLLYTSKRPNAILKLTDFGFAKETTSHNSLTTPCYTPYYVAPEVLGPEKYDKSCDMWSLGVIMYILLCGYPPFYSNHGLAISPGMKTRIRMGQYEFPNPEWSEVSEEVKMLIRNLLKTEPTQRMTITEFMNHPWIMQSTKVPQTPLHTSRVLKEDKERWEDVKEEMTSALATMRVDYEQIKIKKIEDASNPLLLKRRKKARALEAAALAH
# Test description: HTS ATP-utilizing enzyme assay, off-chip mobility-shift (Caliper HTS 250)
# Format: biochemical
# Condition parameters: test compound 10 μM, kinase listed = active (greater than six-sigma from the mean activity of inactive compounds)
Reported endpoint: Activity

// below: answered compounds
Compound: O=C(O)CN1CCN(c2ccc(Nc3ccnc4ccc(-c5ccccc5)cc34)cc2)CC1
Measurement target: MAPKAPK2 (Homo sapiens)
Activity: MAPKAPK2
//
Compound: CCCCN1CCN(c2ccc(Nc3ccnc4ccc(-c5ccccc5)cc34)cc2)CC1
Measurement target: MAPKAPK2 (Homo sapiens)
Activity: MAPKAPK2
//
Compound: Cc1cccc(-c2ccc3nccc(Nc4ccc(N5CCN(C)CC5)cc4)c3c2)c1C
Measurement target: MAPKAPK2 (Homo sapiens)
Activity: MAPKAPK2
//
Compound: CN1CCN(c2ccc(Nc3ccnc4ccc(-c5cccs5)cc34)cc2)CC1
Measurement target: MAPKAPK2 (Homo sapiens)
Activity: MAPKAPK2
//
Compound: CN1CCN(c2ccc(Nc3ccnc4ccc(-c5cc(Cl)ccc5Cl)cc34)cc2)CC1
Measurement target: MAPKAPK2 (Homo sapiens)
Activity: MAPKAPK2
//
Compound: CN1CCN(c2ccc(Nc3ccnc4ccc(-c5ccccc5F)cc34)cc2)CC1
Measurement target: MAPKAPK2 (Homo sapiens)
Activity: MAPKAPK2
//
Compound: CN1CCN(c2ccc(Nc3ccnc4ccc(-c5ccc(C(N)=O)cc5)cc34)cc2)CC1
Measurement target: MAPKAPK2 (Homo sapiens)
Activity: MAPKAPK2
//
Compound: Cc1cc(F)ccc1-c1ccc2nccc(Nc3ccc(N4CCN(C)CC4)cc3)c2c1
Measurement target: MAPKAPK2 (Homo sapiens)
Activity: MAPKAPK2
//
Compound: CN(C)[C@H]1CCN(c2ccc(Nc3ccnc4ccc(-c5ccc(Cl)cc5)cc34)cc2)C1
Measurement target: MAPKAPK2 (Homo sapiens)
Activity: MAPKAPK2
//
Compound: CN1CCN(c2ccc(Nc3ccnc4ccc(-c5cccc6ccccc56)cc34)cc2)CC1
Measurement target: MAPKAPK2 (Homo sapiens)
Activity: MAPKAPK2

Task: Find the recorded Activity belonging to CN1CCC(N(C)c2ccc(Nc3ccnc4ccc(-c5ccc(C#N)cc5)cc34)cc2)C1 (centres unmarked) and report it.
Output: MAPKAPK2

Task: Find the recorded Activity belonging to `COc1ccc(-c2ccc3nccc(Nc4ccc(N5CCN(CC(=O)O)CC5)cc4)c3c2)cc1` and report it.
Output: MAPKAPK2

Task: Find the recorded Activity belonging to `CN(C)[C@H]1CCN(c2ccc(Nc3ccnc4ccc(-c5ccc(C#N)cc5)cc34)cc2)C1` and report it.
Output: MAPKAPK2

Task: Find the recorded Activity belonging to `CN(C)CCN1CCN(c2ccc(Nc3ccnc4ccc(-c5ccccc5)cc34)cc2)CC1` and report it.
Output: MAPKAPK2

Task: Find the recorded Activity belonging to Cc1ccc(-c2ccc3nccc(Nc4ccc(N5CCC(N(C)C)C5)cc4)c3c2)cc1 (centres unmarked) and report it.
Output: MAPKAPK2

Task: Find the recorded Activity belonging to `CN1CCN(c2ccc(Nc3ccnc4ccc(-c5ccc(Cl)cc5)cc34)cc2)CC1` and report it.
Output: MAPKAPK2

Task: Find the recorded Activity belonging to `CN1CCN(c2ccc(Nc3ccnc4ccc(-c5ccc(C(C)(C)C)cc5)cc34)cc2)CC1` and report it.
Output: MAPKAPK2

Task: Find the recorded Activity belonging to `COc1ccc(C(C)C)cc1-c1ccc2nccc(Nc3ccc(N4CCN(C)CC4)cc3)c2c1` and report it.
Output: MAPKAPK2

Task: Find the recorded Activity belonging to `CN1CCN(c2ccc(Nc3ccnc4ccc(-c5cccc(O)c5)cc34)cc2)CC1` and report it.
Output: MAPKAPK2

Task: Find the recorded Activity belonging to `N#Cc1ccc(-c2ccc3nccc(Nc4ccc(N5CCN(CCCO)CC5)cc4)c3c2)cc1` and report it.
Output: MAPKAPK2
